tested system: human PD-L1 / Human PD-1 (Homo sapiens (Human), UniProt Q9NZQ7)
Sequence (Q9NZQ7 19-239): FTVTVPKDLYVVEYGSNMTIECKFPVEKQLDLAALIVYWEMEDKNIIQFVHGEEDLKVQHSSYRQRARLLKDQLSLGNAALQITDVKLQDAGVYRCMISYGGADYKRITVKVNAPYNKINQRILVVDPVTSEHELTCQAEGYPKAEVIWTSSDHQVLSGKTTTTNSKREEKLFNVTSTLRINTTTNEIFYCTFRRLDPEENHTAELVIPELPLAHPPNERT
experimental details: Enzyme-Linked Immunosorbent Assay (ELISA), PD-1/PD-L1 binding
particulars: plate-coated human PD-L1, biotinylated human PD-1
pIC50: −log10 of the molar value.
Measured pIC50, listed per entry for reference.
readout: pIC50

molecule: CC(CO)(NCc1cc(Cl)c(O[C@H]2CCc3c(-c4cccc(OCCCN5CC(O)C5)c4Cl)cccc32)cc1OCc1cccnc1)C(=O)O (some centres unmarked)
result: > 8.30

molecule: CCOc1cc(O[C@H]2CCc3c(-c4cccc(OCCCN5CCC(F)CC5)c4C)cccc32)c(Cl)cc1CN[C@@H](CO)C(=O)O
result: > 8.30

molecule: CC(=O)OC1CCN(CCCOc2cccc(-c3cccc4c3CC[C@@H]4Oc3cc(OCc4cncc(C#N)c4)c(CN[C@@H]4CCCC[C@@H]4O)cc3Cl)c2Cl)CC1
result: > 8.30

molecule: CCOc1cc(O[C@H]2CCc3c(-c4cccc(OCCCN5CCC(F)CC5)c4Cl)cccc32)c(Cl)cc1CN[C@@H]1CCC(=O)NC1
result: 6.30 to 8.30

molecule: Cc1c(OCCCN2CC3(C2)CC(F)(F)C3)cccc1-c1cccc2c1CC[C@@H]2Oc1cc(OCc2cc(C#N)cc(C#N)c2)c(CNC[C@H]2CCC(=O)N2)cc1Cl
result: 6.30 to 8.30

molecule: Cc1c(OCCCN2CCC(O)CC2)cccc1-c1cccc2c1CC[C@@H]2Oc1cc(OCc2cc(C#N)cc(C#N)c2)c(CN[C@@H]2CCCC[C@@H]2O)cc1Cl
result: > 8.30

molecule: N#Cc1cncc(COc2cc(O[C@H]3CCc4c(-c5cccc(OCCCN6CCC(F)CC6)c5Cl)cccc43)c(Cl)cc2CN2CC[C@@H](F)C2)c1
result: > 8.30

molecule: CCOc1cc(O[C@H]2CCc3c(-c4cccc(OCCCN5CCC5(C)C)c4C)cccc32)c(Cl)cc1CNC[C@@H]1CCC(=O)N1
result: > 8.30

molecule: CCOC(=O)[C@](C)(CO)NCc1cc(Cl)c(O[C@H]2CCc3c(-c4cccc(OCCCN5CC(O)C5)c4Cl)cccc32)cc1OCc1cncc(C#N)c1
result: > 8.30

molecule: CCOc1cc(O[C@H]2CCc3c(-c4cccc(OCCCN5CC(C)(C)C5)c4C)cccc32)c(Cl)cc1CNC[C@@H]1CCC(=O)N1
result: 6.30 to 8.30

molecule: Cc1c(OCCCN2CCC(F)CC2)cccc1-c1cccc2c1CC[C@@H]2Oc1cc(OCc2cncc(C#N)c2)c(CN[C@H](C(N)=O)[C@@H](C)O)cc1Cl
result: 6.30 to 8.30

molecule: N#Cc1cncc(COc2cc(O[C@H]3CCc4c(-c5cccc(OCCCN6CC7(CC(F)C7)C6)c5Cl)cccc43)c(Cl)cc2CNC[C@@H]2CCC(=O)N2)c1
result: > 8.30

molecule: N#Cc1cncc(COc2cc(O[C@H]3CCc4c(-c5cccc(OCCCN6CCC(F)CC6)c5Cl)cccc43)c(Cl)cc2CN2CCCC3(C2)NC(=O)NC3=O)c1 (some centres unmarked)
result: 6.30 to 8.30

molecule: Cc1c(OCCCN2CCC(O)CC2)cccc1-c1cccc2c1CCC2Oc1cc(OCc2cncc(C#N)c2)c(CN[C@H](C(=O)O)[C@@H](C)O)cc1Cl (some centres unmarked)
result: > 8.30

molecule: N#Cc1cncc(COc2cc(O[C@H]3CCc4c(-c5cccc(OCCCN6CC7(C6)CC(F)(F)C7)c5Cl)cccc43)c(Cl)cc2CN[C@@H]2CCC[C@H]2O)c1
result: > 8.30

molecule: N#Cc1cncc(COc2cc(O[C@H]3CCc4c(-c5cccc(OCCCN6CCCCC6)c5Cl)cccc43)c(Cl)cc2CN[C@@H]2CCCC[C@@H]2O)c1
result: > 8.30

molecule: Cc1c(OCCCN2CCC(O)CC2)cccc1-c1cccc2c1CC[C@@H]2Oc1cc(OCc2cncc(C#N)c2)c(CNC2(C(=O)O)CCC2)cc1Cl
result: > 8.30

molecule: CCOc1cc(O[C@H]2CCc3c(-c4cccc(OCCCN5CCC5(C)C)c4C)cccc32)c(Cl)cc1CNC[C@H]1CCC(=O)N1
result: 6.30 to 8.30

molecule: Cc1c(OCCCN2CCC(F)CC2)cccc1-c1cc(F)cc2c1CC[C@@H]2Oc1cc(OCc2cc(C#N)cc(C#N)c2)c(CN[C@H]2CCC(=O)NC2)cc1Cl
result: 6.30 to 8.30

molecule: Cc1c(OCCCN2C(C)CC2C)cccc1-c1cccc2c1CC[C@@H]2Oc1cc(OCc2cc(C#N)cc(C#N)c2)c(CN[C@H]2CCC(=O)NC2)cc1Cl (some centres unmarked)
result: > 8.30

molecule: C[C@@](CO)(NCc1cc(Cl)c(O[C@H]2CCc3c(-c4cccc(OCCCN5CCC(O)CC5)c4F)cccc32)cc1OCc1cncc(C#N)c1)C(=O)O
result: > 8.30

molecule: N#Cc1cncc(COc2cc(O[C@H]3CCc4c(-c5cccc(OCCCN6CC(O)C6)c5Cl)cccc43)c(Cl)cc2CNC[C@@H]2CCC(=O)N2)c1
result: > 8.30

molecule: Cc1c(OCCCNCC(C)(C)O)cccc1-c1cccc2c1CC[C@@H]2Oc1cc(OCc2cncc(C#N)c2)c(CNCC2CCC(=O)N2)cc1Cl (some centres unmarked)
result: > 8.30

molecule: CCOc1cc(O[C@H]2CCc3c(-c4cccc(OCCCN5[C@H](C)CC[C@H]5C)c4C)cccc32)c(Cl)cc1CN1CCC(C(=O)O)CC1
result: 6.30 to 8.30

molecule: Cc1c(OCCCN2CC(O)C2)cccc1-c1cccc2c1CC[C@@H]2Oc1cc(OCc2cncc(C#N)c2)c(CN[C@H](C(=O)O)[C@@H](C)O)cc1Cl
result: > 8.30

molecule: N#Cc1cncc(COc2cc(O[C@H]3CCc4c(-c5cccc(OCCCN6CC(O)C6)c5Cl)cccc43)c(Cl)cc2CNCC(=O)O)c1
result: > 8.30
